Test: chemical genetic growth profiling, strain panel (AID 1159580);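 also: tested at 20 µM; growth read once vehicle control cultures reached saturation at 30 °C; 1 = growth at the plate median or of vehicle wells; lower values mean less growth of the strain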
Details: S. cerevisiae deletion strains, growth OD, locus YOR144C, strain elg1, active compounds read low
Hit rate of the full screen: of about 5,500 compounds, about 2,000 (36%) were called active. About 18% were inconclusive and are not listed. The list shows a part of the results.
Reported endpoint: normalized growth

CCC(C)C(OC(C)=O)C(=O)OC1C(O)C2C3(C)C=CC(=O)C(C)(C)C3CC(OC(=O)C(O)C(C)C)C2(C)C23OC2CC(c2ccoc2)C13C (stereo not given) ... 1
CCC(=O)O[C@H]1[C@H](O[C@@H]2[C@@H](C)[C@H](O[C@H]3C[C@@](C)(OC)[C@@H](O)[C@H](C)O3)[C@@H](C)C(=O)O[C@H](CC)[C@@](C)(O)[C@H](O)[C@@H](C)C(=O)[C@H](C)C[C@@]2(C)O)O[C@H](C)C[C@@H]1N(C)C ... 1.01
CCOC(=O)CCC(=O)O[C@H]1[C@H](O[C@@H]2[C@@H](C)[C@H](O[C@H]3C[C@@](C)(OC)[C@@H](O)[C@H](C)O3)[C@@H](C)C(=O)O[C@H](CC)[C@@](C)(O)[C@H](O)[C@@H](C)C(=O)[C@H](C)C[C@@]2(C)O)O[C@H](C)C[C@@H]1N(C)C ... 0.987
CC[C@H]1OC(=O)[C@H](C)[C@@H](O[C@H]2C[C@@](C)(OC)[C@@H](O)[C@H](C)O2)[C@H](C)[C@@H](O[C@@H]2O[C@H](C)C[C@H](N(C)C)[C@H]2O)[C@](C)(O)C[C@@H](C)CN(C)[C@H](C)[C@@H](O)[C@]1(C)O ... 0.976
NCCSSCCN ... 1.01

====

Assay: chemical genetic growth profiling, strain panel (AID 1159580)
Conditions: S. cerevisiae deletion strains, growth OD, locus YNL250W, strain rad50
The whole screen tested about 5,500 compounds, of which about 2,000 (36%) were called active. About 18% were inconclusive and are not listed. No stated cut-off is given here; in the data, active means normalized growth mostly below about 0.91 (no sharp cut-off); inconclusive means no clear call, values can overlap the other calls; inactive means mostly above about 0.92. This is one part of the list.
Possible outcomes: Yes (active), No (inactive)

c1cncc(C2CCCCN2)c1 (stereo not drawn) ... No
CC1CC2C3CC(F)C4=CC(=O)C=CC4(C)C3(F)C(O)CC2(C)C1(O)C(=O)CO (stereo not drawn) ... No
CCC(C)C(=O)O[C@H]1[C@H](O)C2C(CN3CC(C)CCC3[C@@]2(C)O)C2C[C@]34O[C@]5(O)C(OC(=O)C(C)(O)C(C)O)CC[C@@]3(C)C5C(OC(C)=O)[C@@H](OC(C)=O)C4[C@@]21O (stereo partly drawn) ... No
CNCCc1ccccn1 ... No
CCC(C)C(OC(C)=O)C(=O)OC1C(O)C2C3(C)C=CC(=O)C(C)(C)C3CC(OC(=O)C(O)C(C)C)C2(C)C23OC2CC(c2ccoc2)C13C (stereo not drawn) ... No
C=C1C([C@]2(C)C(CC(=O)OC)[C@@](C)(COC(C)=O)OC(=O)C[C@@H]2OC(C)=O)[C@@H](OC=O)[C@H](OC(=O)C(O)C(C)CC)[C@@]2(C)[C@H](c3ccoc3)CC(=O)C12O (stereo partly drawn) ... No
CN(C)C(=S)SSC(=S)N(C)C ... Yes
COC1=C(OC)C(=O)C(C/C=C(\C)CC/C=C(\C)CC/C=C(\C)CC/C=C(/C)CC/C=C(\C)CC/C=C(\C)CC/C=C(\C)CC/C=C(\C)CC/C=C(\C)CCC=C(C)C)=C(C)C1=O ... No

====

Assay: chemical genetic growth profiling, strain panel (AID 1159580)
Conditions: S. cerevisiae deletion strains, growth OD, locus YDL132W, strain cdc53
Hit rate of the full screen: of about 5,500 compounds, about 2,000 (36%) were called active. About 18% were inconclusive and are not listed. Cut-off read from the data, not from the text of the source: active = normalized growth mostly below about 0.91 (no sharp cut-off); inconclusive = no clear call, values can overlap the other calls; inactive = mostly above about 0.92. Some of the results follow.
Labels: active, inactive

COc1cc(NC(=S)N(C)C)c(OC)cc1Cl ... inactive
COc1cc(NC(=S)NNS(=O)(=O)c2ccc(C)cc2)c(OC)cc1Cl ... inactive
CSC1=NNC(c2nn(C)cc2Cl)S1 (stereo unspecified) ... active
Cc1ccccc1C(=O)Oc1ccc(C(F)(F)F)cc1[N+](=O)[O-] ... inactive
Cc1ccc(Sc2c(Sc3ccc(C)cc3)c(=O)c2=O)cc1 ... inactive
Cc1cc(C(=O)Nc2ccc(Cl)cc2)nn1C(C)(C)C ... inactive
Cc1nn(Cc2cccc(C(=O)Nc3ccc(Cl)cc3)c2)c(C)c1Br ... inactive
Nc1ccccc1SCc1c(Cl)cccc1Cl ... inactive
O=C(Oc1ccc(C(F)(F)F)cc1[N+](=O)[O-])c1cccc(Cl)c1 ... inactive
OC1(C(F)(F)F)CC(C23CC4CC(CC(C4)C2)C3)=NN1 (stereo unspecified) ... active
Cc1c(Cc2ccc(F)cc2)c(=O)oc2cc(O)ccc12 ... inactive

====

Assay: chemical genetic growth profiling, strain panel (AID 1159580)
Settings: S. cerevisiae deletion strains, growth OD, locus YER016W, strain bim1, active compounds read low
In all, about 5,500 compounds went through this assay and about 2,000 (36%) were called active. Roughly 18% stayed inconclusive and do not appear here. The list shows a part of the results.
For each record, check the reported normalized growth: if it is below 1 write yes (1), else write no (0).

COc1cc2c(cc1OC)[C@@H]1C(=O)c3ccc(OC)c(CC=C(C)C)c3O[C@@H]1CO2 ... no (0)
CCCCCCCCCCCCCCCC[N+](C)(C)C ... yes (1)
COc1cc2c(cc1OC)[C@@H]1C(=O)c3ccc(O)c(CC=C(C)C)c3O[C@@H]1CO2 ... no (0)

====

The entries below come with measured normalized growth values attached.
Test: chemical genetic growth profiling, strain panel (AID 1159580);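 also: tested at 20 µM; growth read once vehicle control cultures reached saturation at 30 °C; 1 = growth at the plate median or of vehicle wells; lower values mean less growth of the strain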
Conditions: S. cerevisiae deletion strains, growth OD, locus YDL074C, strain BRE1, active compounds read low
Hit rate of the full screen: of about 5,500 compounds, about 2,000 (36%) were called active. Not shown: some 18% with an inconclusive outcome. The list shows a part of the results.
Reported endpoint: normalized growth

C[C@@H]1[C@H]2[C@H](O[C@@H]3O[C@H](CO)[C@@H](O)[C@H](O)[C@H]3O)OC=C(C(=O)O)[C@H]2C[C@@H]1O ... 1.08
Cc1cccc(C)c1OCC(C)N (stereo not given) ... 1.05
C[C@H]1CC2C([C@@H](O)C[C@@]3(C)C2CC[C@]3(O)C(=O)CO)[C@@]2(C)C=CC(=O)C=C12 (stereo not given in full) ... 1.02
COc1cc2c(cc1OC)C1C(=O)c3c(O)cc4c(c3OC1CO2)C=CC(C)(C)O4 (stereo not given) ... 0.962
CC1=C(CC(=O)O)c2cc(F)ccc2/C1=C\c1ccc(S(C)=O)cc1 (stereo not given) ... 0.981

====

Assay: chemical genetic growth profiling, strain panel (AID 1159580);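 also: tested at 20 µM; growth read once vehicle control cultures reached saturation at 30 °C; 1 = growth at the plate median or of vehicle wells; lower values mean less growth of the strain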
Conditions: S. cerevisiae deletion strains, growth OD, locus YOR184W, strain ser1
Among all 5,500 compounds or so, about 2,000 (36%) were called active. About 18% were inconclusive and are not listed. No stated cut-off is given here; in the data, active means normalized growth mostly below about 0.91 (no sharp cut-off); inconclusive means no clear call, values can overlap the other calls; inactive means mostly above about 0.92. Some of the results follow.
Classes used: Y = active, N = inactive

CO[C@H]1[C@H](O)[C@H](O[C@H]2CC[C@]3(C)C4CC[C@]5(C)C(C6=CC(=O)OC6)CC[C@]5(O)C4CC[C@@H]3C2)O[C@@H](C)[C@@H]1O (stereo partly specified) ... N
O=C1C=CC(=C(c2ccc(O)cc2)c2ccc(O)cc2)C=C1 ... N
CC(C[N+](C)(C)C)OC(N)=O (stereo unspecified) ... N
O=C(O)c1cc2ccccc2[nH]1 ... N
CN(C)CC/C=C1\c2ccccc2Sc2ccc(Cl)cc21 ... N
CS(=O)(=O)c1ccc(C2=C(c3ccccc3)C(=O)OC2)cc1 ... N
COc1cc(O)c(C(=O)/C=C/c2ccccc2)c(OC)c1 ... Y
CC1=C(CC(=O)O)c2cc(F)ccc2/C1=C\c1ccc(S(C)=O)cc1 (stereo unspecified) ... N
CCCCNc1cc(C(=O)O)cc(S(N)(=O)=O)c1Oc1ccccc1 ... N
CN(C)c1ccc(C(=C2C=CC(=[N+](C)C)C=C2)c2ccc(N(C)C)cc2)cc1 ... Y
OCC(O)C(O)C(O)CO (stereo unspecified) ... N

====

Experiment: chemical genetic growth profiling, strain panel (AID 1159580);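 also: tested at 20 µM; growth read once vehicle control cultures reached saturation at 30 °C; 1 = growth at the plate median or of vehicle wells; lower values mean less growth of the strain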
Conditions: S. cerevisiae deletion strains, growth OD, locus YAL040C, strain CLN3, active compounds read low
Screen size: about 5,500 compounds; about 2,000 (36%) were called active. About 18% were inconclusive and are not listed. This is one part of the list.
Reported endpoint: normalized growth

CN(N=O)c1cc(O)ccc1O ... 0.98
CN1CCc2c(cc(O)c(O)c2Cl)C(c2cccc(Cl)c2)C1 (centres undefined) ... 1.07
C=CCN1CCc2cc(O)c(O)cc2C(c2ccccc2)C1 (centres undefined) ... 1.06
CN1CCc2cc(O)c(O)cc2C(c2ccccc2)C1 (centres undefined) ... 1
C[N+](C)(C)CCOC(N)=O ... 1.05
CNC(=O)OCC[N+](C)(C)C ... 1
CNC(=O)[C@H]1O[C@@H](n2cnc3c(N)ncnc32)C(O)[C@H]1O (some centres undefined) ... 0.989
Cc1cccc(C2CN(C)CCc3c2cc(O)c(O)c3Cl)c1 (centres undefined) ... 1.01
C=CCN1C[C@@H](C)N([C@H](c2ccc(C(=O)N(CC)CC)cc2)c2cccc(OC)c2)C[C@@H]1C ... 1.04
CN1CCc2cc(Cl)c(O)cc2[C@@H](c2ccccc2)C1 ... 1.01
CCC(NC(C)C)C(O)c1ccc(O)c(O)c1 (centres undefined) ... 1
Cn1cnc(CCN)c1 ... 0.999
CC(C[N+](C)(C)C)OC(N)=O (centres undefined) ... 1
Nc1c(S(=O)(=O)O)cc(Nc2ccc(Nc3nc(Cl)nc(Nc4ccc(S(=O)(=O)O)cc4)n3)c(S(=O)(=O)O)c2)c2c1C(=O)c1ccccc1C2=O ... 1.09
CC(C)C[C@H](NC(=O)[C@@H](O)[C@H](N)Cc1ccccc1)C(=O)O ... 1.05
C=Cc1c2[nH]c(c1C)Cc1[nH]c(c(C)c1C=C)C=C1N=C(C=c3[nH]c(c(C)c3CCC(=O)O)=C2)C(CCC(=O)O)=C1C ... 0.989
NNC(N)=O ... 1.01
CC(C)C[C@H](NC(=O)[C@H](O)[C@H](N)Cc1ccccc1)C(=O)O ... 0.978
C=CCN1CCc2c(cc(O)c(O)c2Cl)C(c2ccccc2)C1 (centres undefined) ... 0.992
NC1CCN(O)C1=O (centres undefined) ... 1.02
CN(N=O)c1ccc(O)c(O)c1 ... 0.997
O=C(O)C1=CCCN(CCON=C(c2ccccc2)c2ccccc2)C1 ... 1.04
CCCCNc1cc(C(=O)O)cc(S(N)(=O)=O)c1Oc1ccccc1 ... 0.946
CCN(CC)CCCC(C)Nc1c2ccc(Cl)cc2nc2ccc(OC)cc12 (centres undefined) ... 0.972
